Exercise: state measured inhibition for each of the compounds provided.
molecular target: Substance-P receptor (Homo sapiens, UniProt P25103); test: Binding affinity towards human Tachykinin receptor 1 expressed in CHO cells using [3H]-substance P; Less than 50% inhibition at 10e-5 M; format: cell-based
Sequence (P25103 whole entry): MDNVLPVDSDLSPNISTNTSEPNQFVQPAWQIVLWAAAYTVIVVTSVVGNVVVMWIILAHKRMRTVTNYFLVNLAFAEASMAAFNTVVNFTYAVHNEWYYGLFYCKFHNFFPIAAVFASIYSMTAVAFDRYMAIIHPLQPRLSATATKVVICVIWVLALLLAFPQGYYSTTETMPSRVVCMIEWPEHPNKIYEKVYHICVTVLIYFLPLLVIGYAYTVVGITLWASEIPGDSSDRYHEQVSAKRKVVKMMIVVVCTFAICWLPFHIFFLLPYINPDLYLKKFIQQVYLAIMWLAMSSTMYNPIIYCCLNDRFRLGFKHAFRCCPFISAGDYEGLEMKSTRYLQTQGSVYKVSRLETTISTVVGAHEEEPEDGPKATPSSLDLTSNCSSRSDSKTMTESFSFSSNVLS

Lab note: measured inhibition of O=C(COc1cc(F)cc(C(F)(F)F)c1)N(Cc1cccc(Cl)c1)C1CCNCC1 was < 5%

Lab note: measured inhibition of O=C(COc1cc(F)cc(F)c1)N(Cc1cccc(Cl)c1)C1CCNCC1 was < 5%

Lab note: measured inhibition of O=C(COc1cc(F)cc(C(F)(F)F)c1)N(c1ccc(Cl)c(Cl)c1)C1CCNCC1 was < 5%

Lab note: measured inhibition of O=C(COc1cc(C(F)(F)F)cc(C(F)(F)F)c1)N(c1cc(Cl)cc(Cl)c1)C1CCNCC1 was < 5%

###

experiment: Lipophilicity; assay type: physicochemical
Quick rule for you: Log K' IAM under 3 gets criterion met, anything else gets criterion not met.

[in] Is it true that Log K' IAM reported for O=C(COc1cc(C(F)(F)F)cc(C(F)(F)F)c1)N(c1ccc(F)cc1)C1CCNCC1 is less than 3?
[out] criterion met

[in] Is it true that Log K' IAM reported for Cc1cccc(CN(C(=O)COc2cc(C(F)(F)F)cc(C(F)(F)F)c2)C2CCNCC2)c1 is less than 3?
[out] criterion not met

[in] Is it true that Log K' IAM reported for O=C(COc1cc(Cl)cc(Cl)c1)N(Cc1cccc(Cl)c1)C1CCNCC1 is less than 3?
[out] criterion not met

[in] Is it true that Log K' IAM reported for O=C(COc1cc(F)cc(C(F)(F)F)c1)N(Cc1cccc(Cl)c1)C1CCNCC1 is less than 3?
[out] criterion met

[in] Is it true that Log K' IAM reported for Fc1ccc(N(CCCc2cc(C(F)(F)F)cc(C(F)(F)F)c2)C2CCNCC2)cc1 is less than 3?
[out] criterion not met

[in] Is it true that Log K' IAM reported for O=C(COc1cc(C(F)(F)F)cc(C(F)(F)F)c1)N(c1ccc(Cl)c(Cl)c1)C1CCNCC1 is less than 3?
[out] criterion not met

[in] Is it true that Log K' IAM reported for O=C(COc1cc(C(F)(F)F)cc(C(F)(F)F)c1)N(c1cc(Cl)cc(Cl)c1)C1CCNCC1 is less than 3?
[out] criterion not met

[in] Is it true that Log K' IAM reported for O=C(COc1cc(C(F)(F)F)cc(C(F)(F)F)c1)N(Cc1ccccc1Cl)C1CCNCC1 is less than 3?
[out] criterion not met

[in] Is it true that Log K' IAM reported for O=C(COc1cc(C(F)(F)F)cc(C(F)(F)F)c1)N(Cc1cccc(Cl)c1)C1CCNCC1 is less than 3?
[out] criterion not met

[in] Is it true that Log K' IAM reported for Fc1ccc(CN(CCCc2cc(C(F)(F)F)cc(C(F)(F)F)c2)C2CCNCC2)cc1 is less than 3?
[out] criterion not met

[in] Is it true that Log K' IAM reported for O=C(COc1cc(F)cc(F)c1)N(Cc1cccc(Cl)c1)C1CCNCC1 is less than 3?
[out] criterion met

[in] Is it true that Log K' IAM reported for O=C(CCc1cc(C(F)(F)F)cc(C(F)(F)F)c1)N(c1ccc(F)cc1)C1CCNCC1 is less than 3?
[out] criterion met

[in] Is it true that Log K' IAM reported for O=C(CCc1cc(C(F)(F)F)cc(C(F)(F)F)c1)N(Cc1ccccc1Cl)C1CCNCC1 is less than 3?
[out] criterion not met

[in] Is it true that Log K' IAM reported for Cc1cc(C)cc(OCC(=O)N(Cc2cccc(Cl)c2)C2CCNCC2)c1 is less than 3?
[out] criterion met

[in] Is it true that Log K' IAM reported for Cc1cccc(CN(C(=O)CCc2cc(C(F)(F)F)cc(C(F)(F)F)c2)C2CCNCC2)c1 is less than 3?
[out] criterion not met

[in] Is it true that Log K' IAM reported for O=C(CCc1cc(C(F)(F)F)cc(C(F)(F)F)c1)N(Cc1ccc(F)cc1)C1CCNCC1 is less than 3?
[out] criterion met
